Molecular target: recombinant hGYS1/GN1 protein (Homo sapiens, UniProt P13807)
Sequence (P13807 1-737): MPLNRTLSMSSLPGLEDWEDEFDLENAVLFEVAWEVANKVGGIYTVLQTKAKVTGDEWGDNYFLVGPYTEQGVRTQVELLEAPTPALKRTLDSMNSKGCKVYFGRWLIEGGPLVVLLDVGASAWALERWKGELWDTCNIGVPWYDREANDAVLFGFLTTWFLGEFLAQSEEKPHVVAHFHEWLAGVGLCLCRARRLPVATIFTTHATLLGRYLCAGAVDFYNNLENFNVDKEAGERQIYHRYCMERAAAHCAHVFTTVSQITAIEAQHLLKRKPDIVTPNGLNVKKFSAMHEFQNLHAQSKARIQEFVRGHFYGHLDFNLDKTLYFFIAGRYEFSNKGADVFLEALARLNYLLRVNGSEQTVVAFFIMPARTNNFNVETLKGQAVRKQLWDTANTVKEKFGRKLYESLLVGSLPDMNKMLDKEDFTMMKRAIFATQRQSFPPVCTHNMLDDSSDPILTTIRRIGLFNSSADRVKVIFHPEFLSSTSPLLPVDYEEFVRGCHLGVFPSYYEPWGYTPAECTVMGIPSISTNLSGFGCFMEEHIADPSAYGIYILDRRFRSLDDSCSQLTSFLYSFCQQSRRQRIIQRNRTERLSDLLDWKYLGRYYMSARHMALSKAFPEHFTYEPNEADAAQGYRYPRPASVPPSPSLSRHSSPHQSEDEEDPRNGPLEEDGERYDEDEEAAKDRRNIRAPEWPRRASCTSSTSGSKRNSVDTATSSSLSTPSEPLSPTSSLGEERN
Sequence (P46976 1-350 partner): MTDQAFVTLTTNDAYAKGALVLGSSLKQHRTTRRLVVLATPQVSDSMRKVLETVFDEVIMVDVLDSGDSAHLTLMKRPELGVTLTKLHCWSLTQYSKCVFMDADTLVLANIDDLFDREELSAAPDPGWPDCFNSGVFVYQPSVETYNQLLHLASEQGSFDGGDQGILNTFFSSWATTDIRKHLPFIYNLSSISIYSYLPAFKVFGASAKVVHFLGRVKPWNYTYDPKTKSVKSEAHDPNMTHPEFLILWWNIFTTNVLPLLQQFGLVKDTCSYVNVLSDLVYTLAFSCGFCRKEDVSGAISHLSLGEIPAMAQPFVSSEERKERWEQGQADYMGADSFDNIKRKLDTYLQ
Assay: GYS1 coupled enzyme assay (PK/LDH, NADH absorbance at 340 nm)
Conditions: geometric mean of at least 2 assay runs on separate days; hGYS1/GN1 50 nM, Glucose-6-Phosphate 1 mM, UDP-Glucose 0.8 mM
Listed compounds paired with reported pIC50
Schema: pIC50 number; meaning minus log10 of the concentration expressed in molar units.

O=C(N[C@@H](c1ccccc1)c1ccc(C2CC2)c(F)n1)[C@@H]1C[C@@H](F)CN1C(=O)COCCOCCOCCOCCOCCOCCOCC(=O)N1C[C@H](F)C[C@H]1C(=O)N[C@@H](c1ccccc1)c1ccc(C2CC2)c(F)n1    8.25

Given "O=C(N[C@@H](c1ccccc1)c1ccc(C2CC2)c(F)n1)[C@@H]1C[C@@H](F)CN1C(=O)Cn1cc(COCCOCc2cn(CC(=O)N3C[C@H](F)C[C@H]3C(=O)N[C@@H](c3ccccc3)c3ccc(C4CC4)c(F)n3)nn2)nn1" , report its pIC50 on recombinant hGYS1/GN1 protein (Homo sapiens, UniProt P13807). 7.95

====

biological target: recombinant hGYS1/GN1 protein (Homo sapiens); assay: GYS1 coupled enzyme assay (PK/LDH, NADH absorbance at 340 nm); details: geometric mean of at least 2 assay runs on separate days; hGYS1/GN1 50 nM, Glucose-6-Phosphate 1 mM, UDP-Glucose 0.8 mM
Lab note - cut at 10 nM for IC50: Criterion met if strictly below, Criterion not met if not.

Sample answers from the record:
CN(CCOCCOCCOCC(=O)N1C[C@H](F)C[C@H]1C(=O)N[C@@H](c1ccccc1)c1ccc(C2CC2)c(F)n1)CCOCCOCC(=O)N1C[C@H](F)C[C@H]1C(=O)N[C@@H](c1ccccc1)c1ccc(C2CC2)c(F)n1 [Compound 17]    Criterion met
O=C(COCCOCCOCCOCCOCCOCCOCCOCCOCCOCCOCCOCC(=O)N[C@@H](c1ccccc1)c1ccc(C2CC2)c(F)n1)N[C@@H](c1ccccc1)c1ccc(C2CC2)c(F)n1 [Compound 3]    Criterion not met
O=C(N[C@@H](c1ccccc1)c1ccc(C2CC2)c(F)n1)[C@@H]1C[C@@H](F)CN1C(=O)Cn1cc(OCCOc2cn(CC(=O)N3C[C@H](F)C[C@H]3C(=O)N[C@@H](c3ccccc3)c3ccc(C4CC4)c(F)n3)nn2)nn1 [Compound 9]    Criterion not met
O=C(N[C@@H](c1ccccc1)c1ccc(C2CC2)c(F)n1)[C@@H]1C[C@@H](F)CN1C(=O)COCCOCCNCCOCCOCCOCC(=O)N1C[C@H](F)C[C@H]1C(=O)N[C@@H](c1ccccc1)c1ccc(C2CC2)c(F)n1 [Compound 13]    Criterion not met
O=C(N[C@@H](c1ccccc1)c1ccc(C2CC2)c(F)n1)[C@@H]1C[C@@H](F)CN1C(=O)COCCOCCOCCOCC(=O)N1C[C@H](F)C[C@H]1C(=O)N[C@@H](c1ccccc1)c1ccc(C2CC2)c(F)n1 [Compound 11]    Criterion not met
O=C(N[C@@H](c1ccccc1)c1ccc(C2CC2)c(F)n1)[C@@H]1C[C@@H](F)CN1C(=O)Cn1cc(COCCOc2cn(CC(=O)N3C[C@H](F)C[C@H]3C(=O)N[C@@H](c3ccccc3)c3ccc(C4CC4)c(F)n3)nn2)nn1 [Compound 8]    Criterion met
O=C(N[C@@H](c1ccccc1)c1ccc(C2CC2)c(F)n1)[C@@H]1C[C@@H](F)CN1C(=O)COCCOCC(=O)N1C[C@H](F)C[C@H]1C(=O)N[C@@H](c1ccccc1)c1ccc(C2CC2)c(F)n1 [Compound 4]    Criterion not met
O=C(N[C@@H](c1ccccc1)c1ccc(C2CC2)c(F)n1)[C@@H]1C[C@@H](F)CN1C(=O)COCCOCCOCCOCCOCCOCC(=O)N1C[C@H](F)C[C@H]1C(=O)N[C@@H](c1ccccc1)c1ccc(C2CC2)c(F)n1 [Compound 5]    Criterion met

Continue with the next molecule.
Determine if O=C(N[C@@H](c1ccccc1)c1ccc(C2CC2)c(F)n1)[C@@H]1C[C@@H](F)CN1C(=O)Cn1cc(OCCOCCOc2cn(CC(=O)N3C[C@H](F)C[C@H]3C(=O)N[C@@H](c3ccccc3)c3ccc(C4CC4)c(F)n3)nn2)nn1 [Compound 1] shows IC50 strictly lower than 10 nM. Criterion not met
